TARGET UNDER TEST: cathepsin X (Homo sapiens, UniProt Q9UBR2)
Sequence (Q9UBR2 62-303): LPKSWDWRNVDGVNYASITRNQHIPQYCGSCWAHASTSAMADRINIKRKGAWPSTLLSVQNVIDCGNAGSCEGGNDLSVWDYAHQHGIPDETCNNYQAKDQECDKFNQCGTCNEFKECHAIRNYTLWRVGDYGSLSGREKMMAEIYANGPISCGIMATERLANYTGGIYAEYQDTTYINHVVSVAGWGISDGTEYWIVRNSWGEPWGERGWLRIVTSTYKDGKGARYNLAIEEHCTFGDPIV
ASSAY NOTES: Determination of relative inhibition of cathepsin X
Format: biochemical
Design: made in house; host or cells: Pichia pastoris
TEST SETTINGS: second group; 50 μM compound; 1 h preincubation; read-out: % inhibition (1 h preincubation)
ASSAY METRIC: inhibition at 50 µM (%)

See these solved cases before continuing.
COMPOUND	UNIT TAG	READOUT VALUE
O=C(CSc1nncn1-c1ccccc1)c1ccc2c(c1)OCCO2 [Compound 23]	%	72
COc1ccccc1C(=O)CSc1n[nH]c(N)n1 [Compound 25]	%	50
Cc1ccc(C(=O)CSc2n[nH]c(N)n2)cc1 [Compound 13]	%	22
Nc1nc(SCC(=O)c2ccc(-c3ccccc3)cc2)n[nH]1 [Compound 10]	%	64
Cc1ccccc1-n1cnnc1SCC(=O)c1ccc2c(c1)OCCO2 [Compound 20]	%	79
Nc1nc(SCC(=O)c2ccc(Oc3ccccc3)cc2)n[nH]1 [Compound 9]	%	27
Cn1cnc(SCC(=O)c2ccc3c(c2)OCCO3)n1 [Compound 12]	%	82
COc1ccccc1-n1cnnc1SCC(=O)c1ccc2c(c1)OCCO2 [Compound 24]	%	73
COc1cc2c(cc1OC)CN(C(=O)CSc1n[nH]c(N)n1)CC2 [Compound 7]	%	0
Cc1[nH]c2ccccc2c1C(=O)CSc1nnc[nH]1 [Compound 6]	%	44

[1] COc1ccc(C(=O)CSc2n[nH]c(N)n2)cc1F [Compound 21]
[2] N#Cc1ccc(C(=O)CSc2n[nH]c(N)n2)cc1 [Compound 16]
Which shows the larger inhibition at 50 µM value: 1 or 2 ? // caller expects the label of the chosen entry
1

[P] O=C(CSc1nc[nH]n1)c1ccc2c(c1)OCCO2 [Compound 11]
[Q] Cc1[nH]c2ccccc2c1C(=O)C(C)Sc1n[nH]c(N)n1 (centres unmarked) [Compound 15]
Sorting by inhibition at 50 µM in descending order, would P or Q appear first? Lab log: write the label of the selected item as the result.
P
